# test.system: Acetylcholinesterase (Electrophorus electricus) (UniProt O42275)
# Sequence (O42275 24-633 limits assumed): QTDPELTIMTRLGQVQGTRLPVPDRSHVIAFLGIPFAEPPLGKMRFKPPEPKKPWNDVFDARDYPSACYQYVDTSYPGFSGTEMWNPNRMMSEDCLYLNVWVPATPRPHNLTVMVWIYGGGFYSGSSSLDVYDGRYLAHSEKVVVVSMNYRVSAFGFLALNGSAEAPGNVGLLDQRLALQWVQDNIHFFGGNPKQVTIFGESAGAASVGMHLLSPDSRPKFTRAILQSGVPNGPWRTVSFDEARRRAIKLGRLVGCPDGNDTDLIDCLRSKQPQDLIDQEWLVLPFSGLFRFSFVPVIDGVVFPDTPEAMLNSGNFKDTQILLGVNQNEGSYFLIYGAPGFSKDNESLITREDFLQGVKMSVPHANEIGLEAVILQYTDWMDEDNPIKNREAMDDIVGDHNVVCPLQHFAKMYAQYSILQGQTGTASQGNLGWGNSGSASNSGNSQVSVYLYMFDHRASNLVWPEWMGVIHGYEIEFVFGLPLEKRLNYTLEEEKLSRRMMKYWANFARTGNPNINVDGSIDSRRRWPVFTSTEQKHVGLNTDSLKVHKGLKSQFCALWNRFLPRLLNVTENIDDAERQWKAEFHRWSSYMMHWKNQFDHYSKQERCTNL
# measurement.description: Inhibition of Electric eel AChE at 10 uM using acetylthiocholine iodide as substrate preincubated for 5 mins followed by substrate addition measured after 5 mins by Ellman's method relative to control
quantity: inhibition

GET inhibition where system = Acetylcholinesterase (Electrophorus electricus) (UniProt O42275) and item = O=C1c2ccccc2S(=O)(=O)N1CCCN1CCN(Cc2ccccc2)CC1
34.2%

GET inhibition where system = Acetylcholinesterase (Electrophorus electricus) (UniProt O42275) and item = O=C1c2ccccc2C(=O)N1CCN1CCCC(NCc2ccccc2F)C1 (stereo not given)
15.3%

GET inhibition where system = Acetylcholinesterase (Electrophorus electricus) (UniProt O42275) and item = O=C1c2ccccc2S(=O)(=O)N1CCN1CCN(Cc2cccc(F)c2)CC1
> 50%

GET inhibition where system = Acetylcholinesterase (Electrophorus electricus) (UniProt O42275) and item = O=C1c2ccccc2C(=O)N1CCN1CCCN(Cc2ccccc2F)C1
< 10%

GET inhibition where system = Acetylcholinesterase (Electrophorus electricus) (UniProt O42275) and item = O=C1c2ccccc2S(=O)(=O)N1CCCN1CCN(Cc2ccccc2F)CC1
< 10%

GET inhibition where system = Acetylcholinesterase (Electrophorus electricus) (UniProt O42275) and item = O=C1c2ccccc2C(=O)N1CCN1CCN(Cc2cc(F)cc(F)c2)CC1
< 10%

GET inhibition where system = Acetylcholinesterase (Electrophorus electricus) (UniProt O42275) and item = O=C1c2ccccc2C(=O)N1CCNC1CCCN(Cc2cc(F)cc(F)c2)C1 (stereo not given)
< 10%

GET inhibition where system = Acetylcholinesterase (Electrophorus electricus) (UniProt O42275) and item = O=C1c2ccccc2C(=O)N1CCNC1CCCN(Cc2ccccc2F)C1 (stereo not given)
18.9%

GET inhibition where system = Acetylcholinesterase (Electrophorus electricus) (UniProt O42275) and item = O=C1c2ccccc2S(=O)(=O)N1CCN1CCN(Cc2ccccc2)CC1
> 50%

GET inhibition where system = Acetylcholinesterase (Electrophorus electricus) (UniProt O42275) and item = O=C1c2ccccc2S(=O)(=O)N1CCN1CCN(Cc2cc(F)cc(F)c2)CC1
> 50%

---

# test.system: Acetylcholinesterase (Electrophorus electricus)
# Sequence (O42275 whole entry): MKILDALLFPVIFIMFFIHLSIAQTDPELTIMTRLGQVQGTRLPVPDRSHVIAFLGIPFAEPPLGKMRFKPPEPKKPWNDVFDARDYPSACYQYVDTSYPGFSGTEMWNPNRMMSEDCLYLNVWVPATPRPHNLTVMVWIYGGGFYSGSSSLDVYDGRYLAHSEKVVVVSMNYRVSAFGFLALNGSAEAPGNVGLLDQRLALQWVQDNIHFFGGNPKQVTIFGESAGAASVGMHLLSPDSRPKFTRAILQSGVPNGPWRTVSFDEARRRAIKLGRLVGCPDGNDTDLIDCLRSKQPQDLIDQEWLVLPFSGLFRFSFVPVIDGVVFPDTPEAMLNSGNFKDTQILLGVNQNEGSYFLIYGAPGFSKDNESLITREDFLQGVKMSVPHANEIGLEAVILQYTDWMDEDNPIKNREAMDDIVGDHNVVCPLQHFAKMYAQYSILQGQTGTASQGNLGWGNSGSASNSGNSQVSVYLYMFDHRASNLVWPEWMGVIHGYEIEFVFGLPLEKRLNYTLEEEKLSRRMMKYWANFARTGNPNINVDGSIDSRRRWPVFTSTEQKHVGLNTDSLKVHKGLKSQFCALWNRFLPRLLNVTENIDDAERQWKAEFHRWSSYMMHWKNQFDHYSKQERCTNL
pIC50: −log10 of the molar value.
Please mark Fulfilled if the recorded pIC50 is equal to or greater than 5, and Not fulfilled if it falls below.

Please tell me: is the compound O=C1c2ccccc2C(=O)N1CCN1CCCC(NCc2cc(F)cc(F)c2)C1 (stereo not given) at or over 5 in terms of pIC50?
Fulfilled

Please tell me: is the compound O=C1c2ccccc2S(=O)(=O)N1CCCCN1CCN(Cc2ccccc2)CC1 at or over 5 in terms of pIC50?
Fulfilled

Please tell me: is the compound O=C1c2ccccc2S(=O)(=O)N1CCN1CCN(Cc2cc(F)cc(F)c2)CC1 at or over 5 in terms of pIC50?
Not fulfilled

Please tell me: is the compound O=C1c2ccccc2S(=O)(=O)N1CCCCN1CCN(Cc2ccccc2F)CC1 at or over 5 in terms of pIC50?
Fulfilled

Please tell me: is the compound O=C1c2ccccc2S(=O)(=O)N1CCN1CCN(Cc2ccccc2)CC1 at or over 5 in terms of pIC50?
Fulfilled

Please tell me: is the compound O=C1c2ccccc2S(=O)(=O)N1CCN1CCN(Cc2cccc(F)c2)CC1 at or over 5 in terms of pIC50?
Fulfilled

Please tell me: is the compound O=C1c2ccccc2S(=O)(=O)N1CCN1CCN(Cc2ccccc2F)CC1 at or over 5 in terms of pIC50?
Not fulfilled

Please tell me: is the compound O=C1c2ccccc2S(=O)(=O)N1CCN1CCN(Cc2ccc(F)cc2)CC1 at or over 5 in terms of pIC50?
Fulfilled

Provenance of the data: ChEMBL document CHEMBL3877277
